Assay: nonspecific membrane potential effects, parental HEK293, confirmation, counter-screen for TRPC6 inhibitor project, cell-based, second counter screen (AID 2779)
Settings: parental HEK293 membrane potential dye fluorescence; at 10 µM; maximal acetylcholine challenge after compound addition
The other results are listed elsewhere or left out. Active and inactive are the calls of the source.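 Rule for the calls: active = membrane potential signal moving either way by over 3 SD of the maximum-effect control, in both duplicate plates, meaning non-specific; inactive = the rest.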
Could you please pick one outcome from this set? active, inactive

Hi, do you know how CC(C)c1ccc(OCC(O)Cn2cnc3ccccc32)cc1 (stereo unspecified) came out in this test? inactive

Hi, do you know how `O=C1c2ccccc2C(=O)c2c1cccc2N1CCN(Cc2ccccc2)CC1` came out in this test? inactive

Hi, do you know how CN(C)CCOC(=O)C(c1ccccc1)C1(O)CCCC1 (stereo unspecified) came out in this test? active

Hi, do you know how `C[C@H](NC(=O)OC(C)(C)C)c1nnc(SCC(=O)Nc2ccc(Br)cc2)o1` came out in this test? inactive

Hi, do you know how c1ccc(C2c3[nH]c4ccccc4c3CCN2Cc2cccn2-c2cccnc2)nc1 (stereo unspecified) came out in this test? inactive

Hi, do you know how `CCCc1cc(=S)n2c([nH]c3ccccc32)c1C#N` came out in this test? inactive

---

Target: Short transient receptor potential channel 4 (Mus musculus)
Test: inhibitors of mouse TRPC4 channel, confirmation, cell-based, Fluo4, HEK293 TRPC4beta/mu-opioid (AID 2636)
Conditions: DAMGO, Fluo4 calcium flux, at 10 µM
The source made the active and inactive calls.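 Rule for the calls: active = calcium signal cut by more than 3 SD below the full-agonist control yet still positive, in both repeats and the earlier primary screen; inactive = the rest.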
Could you please pick one outcome from this set? 1 for active, -1 for inactive

Hi, do you know how `CCCC(=O)N1CCc2cc(-c3nc(N)sc3C)ccc21` came out in this test? -1

Hi, do you know how `COc1cccc(C(=O)N(C)CC2CCN(CCc3cccc(C(F)(F)F)c3)CC2)c1` came out in this test? -1

Hi, do you know how `Cc1c(CN2CCC(n3nccc3NC(=O)C3CC3)CC2)[nH]c2ccccc12` came out in this test? -1

Hi, do you know how `O=C(N/N=C/c1cccnc1)c1ccccc1OCc1ccc(Cl)cc1` came out in this test? 1

Hi, do you know how `Cc1ccccc1C(=O)Nc1c(C(=O)N(CCN(C)C)Cc2ccco2)oc2ccccc12` came out in this test? -1

Hi, do you know how `O=C(COc1ccc(Br)cc1CNC1CCCC1)Nc1ccccc1` came out in this test? -1

Hi, do you know how `CCOC(=O)[C@@H]1CCNC[C@@H]1c1ccccc1` came out in this test? -1

Hi, do you know how Cc1ccc(NS(=O)(=O)c2ccc(C(=O)N3CC(C)CC(C)C3)cc2)cc1 (stereo unspecified) came out in this test? -1

Hi, do you know how CN(C)C(CNC(=O)Cc1cccc(C(F)(F)F)c1)c1ccco1 (stereo unspecified) came out in this test? -1

Hi, do you know how `Cc1ccccc1NC(=S)NCCc1ccccn1` came out in this test? -1

Hi, do you know how `CCN1C(=O)c2cccc3c(S(=O)(=O)Nc4ccccc4OC)ccc1c23` came out in this test? -1

---

Biological target: Potassium voltage-gated channel subfamily KQT member 2 (Rattus norvegicus)
Assay: rat KCNQ2 channel potentiation, selectivity assay for KCNQ1 potentiator project, KCNQ2-CHO-K1 cells (AID 493009);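 note: assay conditions were tuned for KCNQ1 rather than KCNQ2 modulators; signal is max minus min fluorescence divided by baseline after thallium stimulus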
Conditions: FluxOR thallium flux fluorescence, at 10 µM, scaled: buffer 0, activator control 100
Calls of active or inactive are those of the source.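 The calls were made as follows: active = mean duplicate potentiation above the buffer control mean plus 5 SD of buffer wells; inactive = the rest.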
Could you please pick one outcome from this set? 1 = active, -1 = inactive

Hi, do you know how `Cc1cc(/C=C2\SC(=Nc3ccc(F)cc3)NC2=O)c(C)n1-c1ccc(S(N)(=O)=O)cc1` came out in this test? -1

Hi, do you know how COCCn1c(=S)[nH]c2sc3c(c2c1=O)CCC(C)C3 (stereo unspecified) came out in this test? 1

Hi, do you know how `CN(C(=S)NC(=O)c1ccccc1)C1CCCCC1` came out in this test? 1

Hi, do you know how `Cc1ccccc1N(CC(=O)N/N=C/c1cc(C)n(-c2ccccc2C)c1C)S(C)(=O)=O` came out in this test? -1

Hi, do you know how `S=c1nc[nH]c2c1cnn2-c1ccccc1` came out in this test? 1

Hi, do you know how `COc1ccc(C(=O)NC(=S)NNC(=O)c2ccc3ccccc3n2)cc1` came out in this test? 1

Hi, do you know how `COc1ccc(CC(=O)NC(=S)Nc2cccc(C)c2)cc1` came out in this test? -1

Hi, do you know how `Cc1ccc(C(=O)CC(=O)COc2ccc(Cl)cc2)cc1` came out in this test? 1

Hi, do you know how `C(=N\NC(=Nc1ccccc1)c1ccccn1)/c1ccccn1` came out in this test? -1

Hi, do you know how `Cc1ccccc1NC(=S)NC(=O)c1cc(-c2ccccc2)nc2ccccc12` came out in this test? 1

Hi, do you know how CCOC(=O)C1=NN(C(=O)c2ccc(OC)cc2)C(O)(c2ccc(Cl)cc2)C1 (stereo unspecified) came out in this test? 1

---

Test: thallium flux activation in parental CHO cells, counter-screen for KCNQ1 potentiator project (AID 493006);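 for activation: fluorescence ratio of max minus min over baseline after K+ and Tl+ depolarization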
Details: parental CHO-K1 cells, FluxOR thallium flux, at 10 µM
Activity calls are given as the source filed them.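 How the source made its calls: active means duplicate-averaged activation above buffer control mean plus 5 SD of those controls; inactive means the rest.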
Could you please pick one outcome from this set? Yes for active, No for inactive

Hi, do you know how `COc1cccc(C(=O)NNC(=O)C(=O)Nc2ccc(OC)cc2OC)c1` came out in this test? Yes

Hi, do you know how `S=C(NN=C1CCCCCC1)Nc1ccc(Cl)cc1` came out in this test? No

Hi, do you know how `CCOC(=O)c1cccc(NC(=O)CCc2ccccc2)c1` came out in this test? No

Hi, do you know how CC(O)Cc1cn([C@@H](CCCCN)C(=O)N2CCNCC2)nn1 (stereo not given in full) came out in this test? No

Hi, do you know how `CN1CCN(C(=O)/C(=C/c2ccccc2)c2ccccc2)CC1` came out in this test? No

Hi, do you know how `NC(=S)n1[nH]c(-c2ccc([N+](=O)[O-])cc2)c(N=Nc2cccc(Cl)c2)c1=O` came out in this test? Yes

Hi, do you know how `COc1ccc(CN(C)C(=O)c2ccc3ccccc3n2)cc1F` came out in this test? No

Hi, do you know how `O=c1c(-c2ccc(Cl)cc2)[n+]([O-])c2ccccc2n1O` came out in this test? Yes

Hi, do you know how `O=C(COc1ccccc1F)Nc1c2c(nn1-c1ccccc1)CS(=O)(=O)C2` came out in this test? No

Hi, do you know how `Cc1ccc(C(=O)Sc2cccccc2=O)cc1` came out in this test? Yes

Hi, do you know how O=C(c1ccccc1)N1CCC(CC2CC(c3ccc(Cl)cc3)=NO2)(C(=O)NCC2CCCCC2)CC1 (stereo not given) came out in this test? No

Hi, do you know how `NC(=S)Nc1nc2ccccc2s1` came out in this test? Yes

Hi, do you know how `Cc1cccc(NC(=O)Nc2ccc(OCc3ccccc3)cc2)n1` came out in this test? No

Hi, do you know how `NNc1nc2c(F)cc(F)cc2s1` came out in this test? No

Hi, do you know how `O=C1CCC/C(=N\NC(=O)c2ccc(COc3cccc4cccnc34)cc2)C1` came out in this test? No

Hi, do you know how `O=C(O)c1ccc2c(=O)n3cc(C(=O)c4ccccc4O)cc(Cl)c3nc2c1` came out in this test? No

Hi, do you know how `Cc1ccc(-c2nc3ccccc3o2)cc1NC(=S)NC(=O)c1cc2ccccc2o1` came out in this test? No

Hi, do you know how `Cc1ccccc1-c1nc(-c2ccccn2)no1` came out in this test? No

Hi, do you know how `CCC1=NN2C(=N)/C(=C/c3ccc(OS(=O)(=O)c4ccccc4)c(OC)c3)C(=O)N=C2S1` came out in this test? No

Hi, do you know how `Cc1ccc(C)c(NC(=S)c2nc3ccccc3s2)c1` came out in this test? No

Hi, do you know how O=C(NC1CCCC1)C(=O)N(Cc1cccnc1)C(C(=O)NC1CCCC1)c1ccco1 (stereo not given) came out in this test? No

Hi, do you know how `Oc1ccc(Br)cc1C=Nc1ccc(Cl)cc1` came out in this test? No

Hi, do you know how `CCCNC1=CC(=O)CC(C)(C)C1` came out in this test? No

Hi, do you know how `COc1ccc(C(=O)NC(=S)NNC(=O)c2ccc(C)cc2)cc1` came out in this test? No

Hi, do you know how O=C(NCC(c1cccs1)N1CCOCC1)C1CCN(S(=O)(=O)c2cccc(C(F)(F)F)c2)CC1 (stereo not given) came out in this test? No

Hi, do you know how `CN1C(=O)/C(=N\OC(=O)c2cccc3ccccc23)c2ccccc21` came out in this test? No

Hi, do you know how `CCOC(=O)c1sc(NC(=S)NC(=O)c2ccc(OC)cc2)nc1C` came out in this test? No

Hi, do you know how `CCOC(=O)c1c(C)[nH]c(C(=O)Cn2nnc(-c3ccccc3Cl)n2)c1C` came out in this test? No

Hi, do you know how CCOC(=O)c1sc2nc(C)nc(SCC(=O)N(C)C3CCS(=O)(=O)C3)c2c1C (stereo not given) came out in this test? No

Hi, do you know how `O=C(CN1C(=O)CNC1=O)Nc1cccc(C(F)(F)F)c1` came out in this test? No

Hi, do you know how CCC(C)c1ccccc1NC(=S)NC(=O)c1ccco1 (stereo not given) came out in this test? Yes

Hi, do you know how `S=c1[nH]nc(-c2cccs2)n1/N=C/c1c(Cl)cccc1Cl` came out in this test? No

Hi, do you know how `Cc1[nH]c(-c2ccccn2)nc(=S)c1Cl` came out in this test? Yes

Hi, do you know how O=C(C1=C(O)C(=O)N(CC2CCCO2)C1c1ccc(Cl)cc1Cl)c1ccco1 (stereo not given) came out in this test? No

Hi, do you know how `C=CCn1c(N)c(C(=O)Nc2ccc(C)cc2)sc1=S` came out in this test? No

Hi, do you know how `COc1ccc(-c2nnc(NC(=O)c3ccc(S(=O)(=O)N4CCCc5ccccc54)cc3)o2)cc1` came out in this test? No

Hi, do you know how `Cc1ccc(-c2nn(-c3ccccc3)cc2/C=N/n2c(-c3cccs3)n[nH]c2=S)cc1` came out in this test? No

Hi, do you know how `COc1ccc(-c2nn(-c3ccccc3)cc2C(=O)NC(=S)NNC(=O)c2ccncc2)cc1` came out in this test? No

Hi, do you know how CC(NC(=O)c1ccco1)C(=O)N(C)Cc1ccc(C(F)(F)F)cc1 (stereo not given) came out in this test? No

Hi, do you know how N#CC(c1ccccc1)c1ccc2c(C(F)(F)F)cc(C(F)(F)F)nc2n1 (stereo not given) came out in this test? No

Hi, do you know how O=C1c2ccccc2NC(c2ccc(-c3cccc(Cl)c3)o2)N1O (stereo not given) came out in this test? No

Hi, do you know how `COc1ccc(NC2=NC3(CCCCC3)N=C(N)N2)cc1` came out in this test? No

Hi, do you know how `C=CCn1c(-c2cc(-c3ccc(C)cc3)nc3ccccc23)n[nH]c1=S` came out in this test? Yes

Hi, do you know how `CCCCCc1ccc(C(=O)CCCC)c(=S)[nH]1` came out in this test? Yes

Hi, do you know how COc1ccccc1-c1nc(C#N)c(N2CC(C)CC(C)C2)o1 (stereo not given) came out in this test? No
